- Test system: OVCAR-5 ovarian
- Method: NCI tumour cell line growth inhibition, 48 h
# maps each entry to its TGI
Readout Kind: TGI (µM)

Molecule	Unit Spec	Rel	Measured Value
O=C(Nc1ccc(C2=NCCN2)cc1)c1cncc(C(=O)Nc2ccc(C3=NCCN3)cc2)c1	µM	>	100
Oc1ccc(-c2nc(-c3cccnc3)c(-c3ccc(F)cc3)[nH]2)cc1	µM	=	68
CCN(CC)CCC(=O)Nc1ccc2c(c1)C(=O)c1ccc(NC(=O)CCN(CC)CC)cc1C2=O	µM	=	25.1
C[C@@]12C[C@@H](c3ccccc3O1)N1CCCCSC1=N2	µM	>	100
COc1ccc(C(OCC2OC(n3cc(C)c(=O)[nH]c3=O)CC2n2cc(Cn3cc(I)c(=O)[nH]c3=O)nn2)(c2ccccc2)c2ccccc2)cc1 (stereo not given)	µM	>	100

* * *

# maps each entry to its TGI
- Test system: SK-MEL-2 melanoma
- Method: NCI tumour cell line growth inhibition, 48 h

Compound	TGI
Cc1ccc2c(=O)cc(-c3ccc(F)cc3)[nH]c2n1	> 100 µM
Oc1ccc(-c2nc(-c3cccnc3)c(-c3ccc(F)cc3)[nH]2)cc1	34.6 µM
Cc1cc(=O)[nH]c(NN2C(Cl)C(=O)C2c2ccccc2O)n1 (stereo not drawn)	> 100 µM
COc1cc2c(cc1OC)C(c1ccccc1CCCCl)=NCC2	> 100 µM
CC(C)CC(=O)OC[n+]1ccc(-c2c(COC(=O)NC(C)C)c(COC(=O)NC(C)C)c3n2CCC3)cc1	> 100 µM
C=C1C(=O)C23CC1CCC2C12CO[C@@H]4OCC(C)(CC[C@@H]1OC3=O)C42 (stereo partly drawn)	16.9 µM
COc1nc(N)c(C(=O)CCl)c(=O)n1C	25.1 µM
Cc1cc(C)nc(NS(=O)(=O)c2ccc(NC(=O)c3ccc(Cl)c4c(Nc5ccc(S(=O)(=O)Nc6nc(C)cc(C)n6)cc5)c5ccccc5nc34)cc2)n1	> 100 µM

* * *

- System: OVCAR-4 ovarian
- Method: NCI tumour cell line growth inhibition, 48 h; in the data active = GI50 below about 0.43 µM; inactive = the rest
Possible outcomes: active, inactive

Compound	Class Name
OCc1ccc(N2CCC2c2ccc(F)cc2)cc1Cl (stereo not drawn)	inactive
NC(=O)c1sc(-n2cnc3ccccc32)cc1OCc1ccccc1Br	inactive
CO[C@H](C(=O)[C@@H](O)[C@@H](C)O)[C@@H]1Cc2cc3cc(O[C@H]4C[C@@H](O[C@H]5C[C@@H](O)[C@H](O)C(C)O5)[C@H](O)C(C)O4)c(C)c(O)c3c(O)c2C(=O)[C@H]1O[C@H]1C[C@@H](O[C@H]2C[C@@H](O[C@H]3C[C@](C)(O)C(=O)C(C)O3)[C@@H](O)C(C)O2)[C@H](O)C(C)O1 (stereo partly drawn)	active
Cc1cc(I)cc(CN(C)CCCCN2CCCCC2)c1O	inactive
COc1ccc2c(C3=C(c4cn(C)c5ccccc45)C(=O)NC3=O)cn(C)c2c1	active
CC1=C(C(=O)Nc2ccc(Cl)c(Cl)c2)C(c2cccc(Oc3ccccc3)c2)NC(=S)N1 (stereo not drawn)	inactive
NC(Cc1c[nH]c2c(O)cccc12)C(=O)O (stereo not drawn)	inactive
CC1(C)CCc2c(c3c(c4c(=O)c(O)c(-c5ccc(O)cc5)oc24)OC(C)(C)CC3)O1	inactive

* * *

- System: SW-620 colon
- Method: NCI tumour cell line growth inhibition, 48 h
# maps each entry to its TGI

Compound	Target Of Assay	TGI
CC12CCC(O)CC1CCC1C2CCC2(C)C(C3=CC(=O)OC3)CCC12O (configuration not stated)	SW-620 colon	> 36.8 µM
CC(N)Cc1ccc(C(=O)Cl)cc1 (configuration not stated)	SW-620 colon	> 100 µM
OCc1ccc(N2CCC2c2ccc(F)cc2)cc1Cl (configuration not stated)	SW-620 colon	> 100 µM
Cn1cc(C2=C(c3cn(C)c4ncccc34)C(=O)NC2=O)c2ccccc21	SW-620 colon	> 25 µM
Cc1ccccc1-n1c(=O)c2ncn(CCCl)c2n(-c2ccccc2C)c1=S	SW-620 colon	> 100 µM
CCCCCCCCCCCOc1ccc(C(=O)C(=O)c2ccc(OCCCCCCCCCCC)c(OCCCCCCCCCCC)c2)cc1OCCCCCCCCCCC	SW-620 colon	> 100 µM
O=C1C(Cl)=C(Nc2cccc(Cl)c2)C(=O)N1Cc1ccc(Cl)cc1Cl	SW-620 colon	18.9 µM
CC(C)CCCCCCCCCCCCC(=O)NCC(=O)NC1C(C)OC(Nc2ncnc3c2ncn3C)C(O)C1O (configuration not stated)	SW-620 colon	> 100 µM
COc1cc([C@@H]2c3cc4c(cc3[C@@H](Nc3ccc([N+](=O)[O-])cc3C(=O)c3ccccc3)[C@H]3COC(=O)[C@H]23)OCO4)cc(OC)c1OC	SW-620 colon	> 100 µM
O=c1[nH][nH]c(=O)n1Cc1ccccc1Cn1c(=O)[nH][nH]c1=O	SW-620 colon	> 100 µM
CN1C(=O)C(C)(C)C2(SC(C)(C)C2(C)C)N(C)C1=S (configuration not stated)	SW-620 colon	> 100 µM
CC(C)C1/C(=N/O)CC(c2ccccc2)N(N=O)C1c1ccccc1 (configuration not stated)	SW-620 colon	> 100 µM
COc1ccccc1C12OC(=O)C1(C)Oc1ccccc1C2=O (configuration not stated)	SW-620 colon	> 100 µM
[N-]=[N+]=Nc1cc(=O)oc2ccccc12	SW-620 colon	> 100 µM
CC(=O)NNc1nc(C)c(C(=O)NNC(=O)C(=O)Nc2ccc(Cl)cc2)s1	SW-620 colon	> 100 µM
CSc1nc2c(c(=O)[nH]1)N=C1c3ccccc3C(=O)C1C(c1ccccc1)N2 (configuration not stated)	SW-620 colon	> 100 µM
CC(C)CC(=O)OC[n+]1ccc(-c2c(COC(=O)NC(C)C)c(COC(=O)NC(C)C)c3n2CCC3)cc1	SW-620 colon	> 100 µM

* * *

- Test system: HCT-15 colon
- Method: NCI tumour cell line growth inhibition, 48 h
Readout Kind: TGI (µM)

Molecule	Rel	Measured Value
CC/C=C\CCC/C=C1/C(=O)C=C[C@@H]1C/C=C\CCCC(=O)OC	=	5.13
CC1(C)CCc2c(c3c(c4c(=O)c(O)c(-c5ccc(O)cc5)oc24)OC(C)(C)CC3)O1	>	100
O=c1[nH]cc(N=Cc2cc(Cl)cc(Cl)c2O)c(=O)[nH]1	>	100
CCN(CC)CCC(=O)Nc1ccc2c(c1)C(=O)c1ccc(NC(=O)CCN(CC)CC)cc1C2=O	=	14.8
CC[C@@]1(C[C@H]2C[C@@]3(C(=O)OC)c4[nH]c5ccccc5c4CCN3C2=O)COC2(CCCCC2)O1	>	100
COc1ccc(CNc2nc(NCc3ccc(OC)c(OC)c3)nc(NC3CCCCC3)n2)cc1	=	5.64
CCCCCCCCCCCCCCCCCC(CCCCCCCCCCCCCCCCC)OP(=O)(O)O	>	100
CNC(=O)C(C)C1CCC2(C)C=CC(=O)C(C)=C2C1O (stereo not given)	>	100
COC1=CC(c2ccc[nH]2)=N/C1=C\c1[nH]c(C)c(C(=O)OC(C)C)c1C	=	1.14
CC(=O)Nc1ccc(-c2nnc(SCC(=O)Nc3ccc([N+](=O)[O-])cc3)o2)cc1	=	26

* * *

- System: HS 578T breast
- Method: NCI tumour cell line growth inhibition, 48 h
# maps each entry to its TGI
Readout Kind: TGI

Compound	Target Of Assay	Readout Kind	Measured Value
CCOC(=O)[C@]1(OC(C)=O)C[C@H](OC(C)=O)[C@@H](C(F)COP(=O)(OCc2ccccc2)OCc2ccccc2)O1 (stereo not given in full)	HS 578T breast	TGI	> 100 µM
CC1=CC2C(O1)C1C(=O)C=CC(=O)C1=CC2[N+](=O)[O-] (stereo not given)	HS 578T breast	TGI	> 58 µM
COc1ccc(/C=C2\CCC(C)C3=C2NC(=S)NC3c2ccc(OC)c(OC)c2)cc1OC (stereo not given)	HS 578T breast	TGI	> 31.6 µM
C[C@@]12C[C@@H](c3ccccc3O1)N1CCCCSC1=N2	HS 578T breast	TGI	> 100 µM
CCOC(=O)N1CCC2(CC1)C[C@](C)(C(C)=O)C(C)O2 (stereo not given in full)	HS 578T breast	TGI	> 100 µM
Cc1cccc(/C=N/NC(=S)Nc2ccccc2)n1	HS 578T breast	TGI	> 100 µM
COc1cc(CNc2cnc3cc(N)cc(N)c3n2)cc(OC)c1	HS 578T breast	TGI	52 µM
CCCCOC(=O)C1OC(O[C@H]2CCC3(C)C(CCC4(C)C3CC=C3C5CC(C)(C)CCC5(C(=O)O)CC[C@]34C)C2(C)C)C(OC2OC(CO)C(O)C(O)C2O)C(OC2OC(CO)C(O)C(O)C2O)C1O (stereo not given in full)	HS 578T breast	TGI	> 100 µM
O=C(Nc1ccccc1)NS(=O)(=O)c1ccc(-n2nc3c(c2-c2cccs2)Cc2ccccc2-3)cc1	HS 578T breast	TGI	52.5 µM
CCNC(=S)N/N=C/c1cc([N+](=O)[O-])ccc1O	HS 578T breast	TGI	> 100 µM
Cn1c2ccccc2c2c(Nc3ccccc3)c3ccccc3nc21	HS 578T breast	TGI	60 µM
O=C(O)CN(CC(=O)O)C1CCCCC1N(CC(=O)O)CC(=O)NCCN=C=S (stereo not given)	HS 578T breast	TGI	> 100 µM
Cc1coc2c1CC1(C)C(CCC(O)C1C)C2 (stereo not given)	HS 578T breast	TGI	> 100 µM
Cc1cc(N(CCC#N)CCC#N)ccc1/C(N=Nc1ccc(Cl)cc1)=N\NC(=O)c1ccccc1	HS 578T breast	TGI	55 µM
N#CC1=C(N)N(c2ccccc2)C(c2ccco2)C1(C#N)C#N (stereo not given)	HS 578T breast	TGI	> 100 µM
CSc1nc2c(c(=O)[nH]1)N=C1c3ccccc3C(=O)C1C(c1ccccc1)N2 (stereo not given)	HS 578T breast	TGI	7.18 µM
COC(=O)[C@H]1CO[C@@H](C(C)(C)C)N1C(=O)N1C=CC(=O)C[C@@H]1C	HS 578T breast	TGI	> 100 µM
COc1cc(/C=C/C(=N\NS(=O)(=O)c2ccc(C)cc2)c2sc(NNC(C)=O)nc2C)ccc1O	HS 578T breast	TGI	> 100 µM
O=S1(=O)NC(=NCc2c[nH]c3ccccc23)N(c2ccccc2)c2ccncc21	HS 578T breast	TGI	92.7 µM
COc1cc2c(cc1OC)C(c1ccccc1CCCCl)=NCC2	HS 578T breast	TGI	> 100 µM
